# testMethodNotes: Lipophilicity, modified shake-flask method
# Type: physicochemical
# experimentalContext: O/PBS, radiolabeled compound, means ± SD (n=6)
Where a SMILES comes first, the peptide text is derived from it. Side-chain parts run from the residue outwards. [ ]: non-standard residue; d: D form. The star is where a group is joined. DOTA = O=C(O)CN1CCN(CC(=O)O)CCN(CC(=O)*)CCN(CC(=O)O)CC1; dTyr(3-I) = N[C@H](Cc1ccc(O)c(I)c1)C(=O)O; 2Nal = N[C@@H](Cc1ccc2ccccc2c1)C(=O)O; dNMeOrn = CN[C@H](CCCN)C(=O)O; 4Abz = Nc1ccc(C(=O)O)cc1
The reader will find reported log PO/PBS values listed item by item below.
I'd appreciate a reply containing only the number, no unit.

As a guide, the following entries are already answered.
Q: Item CN1C(=O)[C@@H](Cc2ccc(O)c(I)c2)NC(=O)CNC(=O)[C@H](Cc2ccc3ccccc3c2)NC(=O)[C@H](CCCNC(=N)N)NC(=O)[C@H]1CCCNC(=O)c1ccc(NC(=O)CNC(=O)[C@@H](CCCNC(=N)N)NC(=O)CN2CCN(CC(=O)O)CCN(CC(=O)O)CCN(CC(=O)O)CC2)cc1 [[^68Ga]DOTA-r-G-ABA-iodoCPCR4] [metal not drawn] (cyclo([2Nal]G[dTyr(3-I)][dNMeOrn]([4Abz-Gly-dR-DOTA])R)) : provide log PO/PBS
A: -3.0

Q: Tell us which log PO/PBS value is on record for C[C@@H](NC(=O)[C@@H](CCCNC(=N)N)NC(=O)CN1CCN(CC(=O)O)CCN(CC(=O)O)CCN(CC(=O)O)CC1)C(=O)Nc1ccc(C(=O)NCCC[C@@H]2C(=O)N[C@@H](CCCNC(=N)N)C(=O)N[C@@H](Cc3ccc4ccccc4c3)C(=O)NCC(=O)N[C@H](Cc3ccc(O)cc3)C(=O)N2C)cc1 [[^177Lu]DOTA-r-a-ABA-CPCR4] [metal not drawn] (cyclo([2Nal]G[dY][dNMeOrn]([4Abz-dA-dR-DOTA])R))
A: -3.0

***
Q: Quick one: give measured log PO/PBS for C[C@@H](NC(=O)[C@@H](CCCNC(=N)N)NC(=O)CN1CCN(CC(=O)O)CCN(CC(=O)O)CCN(CC(=O)O)CC1)C(=O)Nc1ccc(C(=O)NCCC[C@@H]2C(=O)N[C@@H](CCCNC(=N)N)C(=O)N[C@@H](Cc3ccc4ccccc4c3)C(=O)NCC(=O)N[C@H](Cc3ccc(O)cc3)C(=O)N2C)cc1 [[^68Ga]DOTA-r-a-ABA-CPCR4] [metal not drawn] (cyclo([2Nal]G[dY][dNMeOrn]([4Abz-dA-dR-DOTA])R))
A: -3.6

====

# testMethodNotes: Biodistribution in Daudi xenograft bearing mice
# Assay type: in vivo, mouse
# experimentalContext: female, CB-17 SCID, mouse, muscle, iv, total radioactivity, 48h p.i., i.v.; means ± SD, n=4-5; read-out: Biodistribution muscle
Where a SMILES comes first, the peptide text is derived from it. Side-chain parts run from the residue outwards. [ ]: non-standard residue; d: D form. The star is where a group is joined. DOTA = O=C(O)CN1CCN(CC(=O)O)CCN(CC(=O)*)CCN(CC(=O)O)CC1; dTyr(3-I) = N[C@H](Cc1ccc(O)c(I)c1)C(=O)O; 2Nal = N[C@@H](Cc1ccc2ccccc2c1)C(=O)O; dNMeOrn = CN[C@H](CCCN)C(=O)O; 4Abz = Nc1ccc(C(=O)O)cc1
measurementLabel: tissue uptake at 48 h (%ID/g)
Entry rule: numbers only, all in %ID/g.

Q: Consider the compound C[C@@H](NC(=O)[C@@H](CCCNC(=N)N)NC(=O)CN1CCN(CC(=O)O)CCN(CC(=O)O)CCN(CC(=O)O)CC1)C(=O)Nc1ccc(C(=O)NCCC[C@@H]2C(=O)N[C@@H](CCCNC(=N)N)C(=O)N[C@@H](Cc3ccc4ccccc4c3)C(=O)NCC(=O)N[C@H](Cc3ccc(O)cc3)C(=O)N2C)cc1 [[^177Lu]DOTA-r-a-ABA-CPCR4, metal not drawn] (cyclo([2Nal]G[dY][dNMeOrn]([4Abz-dA-dR-DOTA])R)) . State its measured tissue uptake at 48 h.
A: 0.02

More entries:
Q: Provide one value: measured tissue uptake at 48 h of C[C@@H](NC(=O)[C@@H](CCCNC(=N)N)NC(=O)CN1CCN(CC(=O)O)CCN(CC(=O)O)CCN(CC(=O)O)CC1)C(=O)Nc1ccc(C(=O)NCCC[C@@H]2C(=O)N[C@@H](CCCNC(=N)N)C(=O)N[C@@H](Cc3ccc4ccccc4c3)C(=O)NCC(=O)N[C@H](Cc3ccc(O)c(I)c3)C(=O)N2C)cc1 [[^177Lu]DOTA-r-a-ABA-iodoCPCR4, metal not drawn] (cyclo([2Nal]G[dTyr(3-I)][dNMeOrn]([4Abz-dA-dR-DOTA])R))
A: 0.04

====

# testMethodNotes: Biodistribution in Daudi xenograft bearing mice
# Assay type: in vivo, mouse
# experimentalContext: female, CB-17 SCID, mouse, tumor / muscle, iv, total radioactivity; 48h p.i.; means ± SD, n=4-5 animals; read-out: Tumor/organ ratio t/muscle
Where a SMILES comes first, the peptide text is derived from it. Side-chain parts run from the residue outwards. [ ]: non-standard residue; d: D form. The star is where a group is joined. DOTA = O=C(O)CN1CCN(CC(=O)O)CCN(CC(=O)*)CCN(CC(=O)O)CC1; dTyr(3-I) = N[C@H](Cc1ccc(O)c(I)c1)C(=O)O; 2Nal = N[C@@H](Cc1ccc2ccccc2c1)C(=O)O; dNMeOrn = CN[C@H](CCCN)C(=O)O; 4Amb = NCc1ccc(C(=O)O)cc1; 4Abz = Nc1ccc(C(=O)O)cc1
measurementLabel: tissue to tissue ratio at 48 h
When you answer, write just the number.

Q: For C[C@@H](NC(=O)[C@@H](CCCNC(=N)N)NC(=O)CN1CCN(CC(=O)O)CCN(CC(=O)O)CCN(CC(=O)O)CC1)C(=O)Nc1ccc(C(=O)NCCC[C@@H]2C(=O)N[C@@H](CCCNC(=N)N)C(=O)N[C@@H](Cc3ccc4ccccc4c3)C(=O)NCC(=O)N[C@H](Cc3ccc(O)cc3)C(=O)N2C)cc1 [[^177Lu]DOTA-r-a-ABA-CPCR4, metal not drawn] (cyclo([2Nal]G[dY][dNMeOrn]([4Abz-dA-dR-DOTA])R)) , write its tissue to tissue ratio at 48 h.
A: 413

Others:
Q: Find the measured tissue to tissue ratio at 48 h of CN1C(=O)[C@@H](Cc2ccc(O)c(I)c2)NC(=O)CNC(=O)[C@H](Cc2ccc3ccccc3c2)NC(=O)[C@H](CCCNC(=N)N)NC(=O)[C@H]1CCCNC(=O)c1ccc(CNC(=O)CN2CCN(CC(=O)O)CCN(CC(=O)O)CCN(CC(=O)O)CC2)cc1 [[^177Lu]PentixaTher, metal not drawn, reference compound] (cyclo([dTyr(3-I)][dNMeOrn]([4Amb-DOTA])R[2Nal]G)) and report it.
A: 85

Q: Input C[C@@H](NC(=O)[C@@H](CCCNC(=N)N)NC(=O)CN1CCN(CC(=O)O)CCN(CC(=O)O)CCN(CC(=O)O)CC1)C(=O)Nc1ccc(C(=O)NCCC[C@@H]2C(=O)N[C@@H](CCCNC(=N)N)C(=O)N[C@@H](Cc3ccc4ccccc4c3)C(=O)NCC(=O)N[C@H](Cc3ccc(O)c(I)c3)C(=O)N2C)cc1 [[^177Lu]DOTA-r-a-ABA-iodoCPCR4, metal not drawn] (cyclo([2Nal]G[dTyr(3-I)][dNMeOrn]([4Abz-dA-dR-DOTA])R)) , output reported tissue to tissue ratio at 48 h.
A: 226

====

# System: Daudi (human B-cell lymphoma) xenograft bearing CB-17 SCID mice
# testMethodNotes: Biodistribution in Daudi xenograft bearing mice
# Assay type: in vivo, mouse
# experimentalContext: 1h p.i., tracer only, i.v.; γ-counter; means ± SD, n=4-5 (68Ga: n=4)
Where a SMILES comes first, the peptide text is derived from it. Side-chain parts run from the residue outwards. [ ]: non-standard residue; d: D form. The star is where a group is joined. DOTA = O=C(O)CN1CCN(CC(=O)O)CCN(CC(=O)*)CCN(CC(=O)O)CC1; dTyr(3-I) = N[C@H](Cc1ccc(O)c(I)c1)C(=O)O; 2Nal = N[C@@H](Cc1ccc2ccccc2c1)C(=O)O; dNMeOrn = CN[C@H](CCCN)C(=O)O; 4Amb = NCc1ccc(C(=O)O)cc1; 4Abz = Nc1ccc(C(=O)O)cc1
measurementLabel: Biodistribution spleen

Q: For the compound C[C@@H](NC(=O)[C@@H](CCCNC(=N)N)NC(=O)CN1CCN(CC(=O)O)CCN(CC(=O)O)CCN(CC(=O)O)CC1)C(=O)Nc1ccc(C(=O)NCCC[C@@H]2C(=O)N[C@@H](CCCNC(=N)N)C(=O)N[C@@H](Cc3ccc4ccccc4c3)C(=O)NCC(=O)N[C@H](Cc3ccc(O)c(I)c3)C(=O)N2C)cc1 [[^68Ga]DOTA-r-a-ABA-iodoCPCR4] [metal not drawn] (cyclo([2Nal]G[dTyr(3-I)][dNMeOrn]([4Abz-dA-dR-DOTA])R)) , report Biodistribution spleen.
A: 3.02 ± 0.46 %iD/g

Q: Give recorded Biodistribution spleen. CN1C(=O)[C@@H](Cc2ccc(O)c(I)c2)NC(=O)CNC(=O)[C@H](Cc2ccc3ccccc3c2)NC(=O)[C@H](CCCNC(=N)N)NC(=O)[C@H]1CCCNC(=O)c1ccc(CNC(=O)CN2CCN(CC(=O)O)CCN(CC(=O)O)CCN(CC(=O)O)CC2)cc1 [[^177Lu]PentixaTher, metal not drawn, reference compound] (cyclo([dTyr(3-I)][dNMeOrn]([4Amb-DOTA])R[2Nal]G))
A: 1.8 ± 0.3 %iD/g

Q: Report measured Biodistribution spleen; entry is C[C@@H](NC(=O)[C@@H](CCCNC(=N)N)NC(=O)CN1CCN(CC(=O)O)CCN(CC(=O)O)CCN(CC(=O)O)CC1)C(=O)Nc1ccc(C(=O)NCCC[C@@H]2C(=O)N[C@@H](CCCNC(=N)N)C(=O)N[C@@H](Cc3ccc4ccccc4c3)C(=O)NCC(=O)N[C@H](Cc3ccc(O)c(I)c3)C(=O)N2C)cc1 [[^177Lu]DOTA-r-a-ABA-iodoCPCR4] [metal not drawn] (cyclo([2Nal]G[dTyr(3-I)][dNMeOrn]([4Abz-dA-dR-DOTA])R))
A: 6.72 ± 0.70 %iD/g

Q: Answer with reported Biodistribution spleen of C[C@@H](NC(=O)[C@@H](CCCNC(=N)N)NC(=O)CN1CCN(CC(=O)O)CCN(CC(=O)O)CCN(CC(=O)O)CC1)C(=O)Nc1ccc(C(=O)NCCC[C@@H]2C(=O)N[C@@H](CCCNC(=N)N)C(=O)N[C@@H](Cc3ccc4ccccc4c3)C(=O)NCC(=O)N[C@H](Cc3ccc(O)cc3)C(=O)N2C)cc1 [[^177Lu]DOTA-r-a-ABA-CPCR4] [metal not drawn] (cyclo([2Nal]G[dY][dNMeOrn]([4Abz-dA-dR-DOTA])R))
A: 2.41 ± 0.34 %iD/g
